Test system: HeLa Kyoto;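 further: synchronized HeLa Kyoto cells, proteins quantified by TMT10plex mass spectrometry, three biological replicates, mitosis taken 0.5 h after nocodazole release, G1/S directly after double thymidine block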
Assay: thermal stability score vs G1/S (z-score of summed log2 fold changes over temperatures); higher = more thermally stable than in G1/S
Details: cell cycle stage: mitosis
thermal stability score below -0.2 gives Not satisfied; thermal stability score at or above it gives Satisfied.

These solved cases illustrate the format of a correct answer.
MNPNCARCGKIVYPTEKVNCLDKFWHKACFHCETCKMTLNMKNYKGYEKKPYCNAHYPKQSFTMVADTPENLRLKQQSELQSQVRYKEEFEKNKGKGFSVVADTPELQRIKKTQDQISNIKYHEEFEKSRMGPSGGEGMEPERRDSQDGSSYRRPLEQQQPHHIPTSAPVYQQPQQQPVAQSYGGYKEPAAPVSIQRSAPGGGGKRYRAVYDYSAADEDEVSFQDGDTIVNVQQIDDGWMYGTVERTGDTGMLPANYVEAI [LASP1] = Not satisfied
MFSVLSYGRLVARAVLGGLSQTDPRAGGGGGGDYGLVTAGCGFGKDFRKGLLKKGACYGDDACFVARHRSADVLGVADGVGGWRDYGVDPSQFSGTLMRTCERLVKEGRFVPSNPIGILTTSYCELLQNKVPLLGSSTACIVVLDRTSHRLHTANLGDSGFLVVRGGEVVHRSDEQQHYFNTPFQLSIAPPEAEGVVLSDSPDAADSTSFDVQLGDIILTATDGLFDNMPDYMILQELKKLKNSNYESIQQTARSIAEQAHELAYDPNYMSPFAQFACDNGLNVRGGKPDDITVLLSIVAEYTD [PPTC7] = Satisfied
MALLCYNRGCGQRFDPETNSDDACTYHPGVPVFHDALKGWSCCKRRTTDFSDFLSIVGCTKGRHNSEKPPEPVKPEVKTTEKKELCELKPKFQEHIIQAPKPVEAIKRPSPDEPMTNLELKISASLKQALDKLKLSSGNEENKKEEDNDEIKIGTSCKNGGCSKTYQGLESLEEVCVYHSGVPIFHEGMKYWSCCRRKTSDFNTFLAQEGCTKGKHMWTKKDAGKKVVPCRHDWHQTGGEVTISVYAKNSLPELSRVEANSTLLNVHIVFEGEKEFDQNVKLWGVIDVKRSYVTMTATKIEITMRKAEPMQWASLELPAAKKQEKQKDATTD [CHORDC1] = Satisfied
MTSRSTARPNGQPQASKICQFKLVLLGESAVGKSSLVLRFVKGQFHEYQESTIGAAFLTQSVCLDDTTVKFEIWDTAGQERYHSLAPMYYRGAQAAIVVYDITNQETFARAKTWVKELQRQASPSIVIALAGNKADLANKRMVEYEEAQAYADDNSLLFMETSAKTAMNVNDLFLAIAKKLPKSEPQNLGGAAGRSRGVDLHEQSQQNKSQCCSN [RAB5B] = Not satisfied

Next up:
Is the recorded value of thermal stability score equal to or greater than -0.2 for this sequence? MNPTLILAAFCLGIASATLTFDHSLEAQWTKWKAMHNRLYGMNEEGWRRAVWEKNMKMIELHNQEYREGKHSFTMAMNAFGDMTSEEFRQVMNGFQNRKPRKGKVFQEPLFYEAPRSVDWREKGYVTPVKNQGQCGSCWAFSATGALEGQMFRKTGRLISLSEQNLVDCSGPQGNEGCNGGLMDYAFQYVQDNGGLDSEESYPYEATEESCKYNPKYSVANDTGFVDIPKQEKALMKAVATVGPISVAIDAGHESFLFYKEGIYFEPDCSSEDMDHGVLVVGYGFESTESDNNKYWLVKNSWGEEWGMGGYVKMAKDRRNHCGIASAASYPTV [CTSL]
Satisfied
